Entries and their measured IC50 follow.
- Measured target: viral kinase pUL-97 (Human cytomegalovirus)
- Construct: The pUL-97 gene was cloned into a baculovirus vector; GST (glutathione S-transferase) (N); made in house; host or cells: Sf9 insect cells, baculovirus
- Measurement description: UL97 kinase assay on Immobilon plate
- Format: biochemical
- Condition description: inhibition of UL 97 kinase activity; class by IC50 / % inhibition at 10 μM or 100 μM; read-out: Activity Class [A, B, C]

>>> df
                                   compound  assay_result
0  CSc1ccc(-c2cncc(N3CCN(c4cnccn4)CC3)n2)cc1    1 to 10 µM
1  COc1cccc(-c2cncc(N3CCN(c4ccc(Cl)cc4)CC3)n2)c1    1 to 10 µM
2  COc1cccc(N2CCN(c3cncc(-c4csc5ccccc45)n3)CC2)c1    1 to 10 µM

Request: Which IC50 is listed for CSc1ccc(-c2cncc(N3CCN(c4cccc(C)c4)C(C)C3)n2)cc1 (stereo not drawn) ?
Result: 10 to 100 µM

Request: Which IC50 is listed for `Fc1ccc(-c2cncc(N3CCN(c4ccc(Cl)c(Cl)c4)CC3)n2)cc1` ?
Result: 10 to 100 µM

* * *

Entries and their measured IC50 follow.
- Measured target: viral kinase pUL-97 (Human cytomegalovirus, UniProt P16788)
- Construct: The pUL-97 gene was cloned into a baculovirus vector; GST (glutathione S-transferase) (N); made in house; host or cells: Sf9 insect cells, baculovirus
- Sequence (P16788 whole entry): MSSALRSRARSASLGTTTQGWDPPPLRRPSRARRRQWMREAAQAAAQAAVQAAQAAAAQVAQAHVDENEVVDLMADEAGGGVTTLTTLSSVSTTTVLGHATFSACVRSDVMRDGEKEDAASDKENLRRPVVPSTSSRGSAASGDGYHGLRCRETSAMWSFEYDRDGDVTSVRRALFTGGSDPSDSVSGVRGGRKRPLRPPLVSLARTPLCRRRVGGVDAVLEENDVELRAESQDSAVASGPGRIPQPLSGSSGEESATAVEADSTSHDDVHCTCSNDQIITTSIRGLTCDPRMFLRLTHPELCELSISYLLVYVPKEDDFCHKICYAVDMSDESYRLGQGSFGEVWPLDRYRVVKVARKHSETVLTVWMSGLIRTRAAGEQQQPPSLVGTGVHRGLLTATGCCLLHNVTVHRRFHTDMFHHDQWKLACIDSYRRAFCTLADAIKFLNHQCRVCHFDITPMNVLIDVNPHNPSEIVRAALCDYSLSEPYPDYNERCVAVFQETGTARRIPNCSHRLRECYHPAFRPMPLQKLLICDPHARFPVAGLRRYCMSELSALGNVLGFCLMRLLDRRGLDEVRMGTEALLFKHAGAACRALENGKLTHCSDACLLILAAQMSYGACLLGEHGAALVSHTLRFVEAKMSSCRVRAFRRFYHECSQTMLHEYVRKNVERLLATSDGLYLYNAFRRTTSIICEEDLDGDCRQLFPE
- Measurement description: UL97 kinase assay on Immobilon plate
- Assay type: biochemical
- Condition description: inhibition of UL 97 kinase activity; class by IC50 / % inhibition at 10 μM or 100 μM; read-out: Activity Class [A, B, C]

Below, 4 molecules whose answers are already recorded.
In [3]: df
Out[3]:
                                  structure  property_measured  assay_result
0  OCc1ccc(-c2cncc(N3CCN(c4ccccn4)CC3)n2)cc1               IC50    1 to 10 µM
1  COc1ccc(N2CCN(c3cncc(-c4ccc(C(C)(C)C)cc4)n3)CC2)cc1OC               IC50  10 to 100 µM
2  CC(=O)c1ccc(N2CCN(c3cncc(-c4ccccc4Oc4ccccc4)n3)CC2)cc1               IC50  10 to 100 µM
3  COc1cccc(N2CCN(c3cncc(-c4ccoc4)n3)CC2)c1               IC50  10 to 100 µM

Request: Which IC50 is listed for `COc1ccc(-c2cncc(N3CCN(c4ccc(C)cc4C)CC3)n2)cc1OC` ?
Result: 10 to 100 µM

Request: Which IC50 is listed for `Cc1cc(C)cc(-c2cncc(N3CCN(c4cnccn4)CC3)n2)c1` ?
Result: 10 to 100 µM

Request: Which IC50 is listed for `CSc1ccc(-c2cncc(N3CCN(c4ccc(C(F)(F)F)cc4)CC3)n2)cc1` ?
Result: 1 to 10 µM

Request: Which IC50 is listed for `COc1cccc(N2CCN(c3cncc(-c4ccccc4)n3)CC2)c1` ?
Result: 10 to 100 µM

Request: Which IC50 is listed for `c1ccc(C2CCN(c3cncc(-c4ccc5ccccc5c4)n3)CC2)cc1` ?
Result: 1 to 10 µM

Request: Which IC50 is listed for `CC(=O)c1cccc(-c2cncc(N3CCN(c4cccc(C)c4C)CC3)n2)c1` ?
Result: 10 to 100 µM

Request: Which IC50 is listed for `Fc1ccc(N2CCN(c3cncc(-c4csc5ccccc45)n3)CC2)cc1` ?
Result: 1 to 10 µM

Request: Which IC50 is listed for `COc1ccc(N2CCN(c3cncc(-c4ccc(F)cc4)n3)CC2)cc1` ?
Result: 1 to 10 µM

Request: Which IC50 is listed for `c1ccc(Oc2ccc(-c3cncc(N4CCN(c5ccccn5)CC4)n3)cc2)cc1` ?
Result: 10 to 100 µM

Request: Which IC50 is listed for `Fc1ccc(-c2cncc(N3CCN(c4ccc(C(F)(F)F)cc4)CC3)n2)cc1` ?
Result: 10 to 100 µM

Request: Which IC50 is listed for `COc1cccc(N2CCN(c3cncc(-c4cc5ccccc5o4)n3)CC2)c1` ?
Result: 1 to 10 µM

Request: Which IC50 is listed for `COc1ccc(-c2cncc(N3CCN(c4ccc(C(C)=O)cc4)CC3)n2)cc1F` ?
Result: 1 to 10 µM

Request: Which IC50 is listed for `Cc1ccc(-c2cncc(N3CCN(c4ccccc4)CC3)n2)cc1` ?
Result: 1 to 10 µM

Request: Which IC50 is listed for `COc1ccc(-c2cncc(N3CCN(c4ccc(C(F)(F)F)cc4)CC3)n2)cc1OC` ?
Result: 10 to 100 µM

Request: Which IC50 is listed for `Cc1ccc(N2CCN(c3cncc(-c4cccc(C)c4)n3)CC2)cc1` ?
Result: 10 to 100 µM

Request: Which IC50 is listed for `Cc1cccc(-c2cncc(N3CCN(c4ccccc4F)CC3)n2)c1C` ?
Result: 10 to 100 µM

Request: Which IC50 is listed for `Cc1ccc(N2CCN(c3cncc(-c4ccc5ccccc5c4)n3)CC2)cc1C` ?
Result: 1 to 10 µM

Request: Which IC50 is listed for `Clc1ccc(N2CCN(c3cncc(-c4ccc5ccccc5c4)n3)CC2)cc1` ?
Result: 1 to 10 µM

Request: Which IC50 is listed for `Fc1ccc(N2CCN(c3cncc(-c4ccc(-c5ccccc5)c(F)c4)n3)CC2)cc1` ?
Result: 10 to 100 µM

Request: Which IC50 is listed for `c1ccc2c(-c3cncc(N4CCN(c5cnccn5)CC4)n3)csc2c1` ?
Result: < 1 µM

Request: Which IC50 is listed for `c1ccc(C2CCN(c3cncc(-c4cccc5ccccc45)n3)CC2)cc1` ?
Result: 10 to 100 µM

Request: Which IC50 is listed for `Cc1cc(C)cc(-c2cncc(N3CCN(c4ccc(Cl)c(Cl)c4)CC3)n2)c1` ?
Result: 10 to 100 µM
